species on record: Rattus norvegicus; assay: Relaxant potency in rat aorta.; format: functional
measured parameter: Log 1/C
# print the numeric value only

Problem: Reported Log 1/C, compound CC1(C)C=C(n2ccccc2=O)c2cc(-c3ccncc3)ccc2O1 : ____
Result: 6.68

Problem: Reported Log 1/C, compound Cc1ccccc1C(=O)c1ccc2c(c1)C(n1ccccc1=O)=CC(C)(C)O2 : ____
Result: 6.83

Problem: Reported Log 1/C, compound CC1(C)C=C(n2ccccc2=O)c2cc(C(=N)S)ccc2O1 : ____
Result: 6.21

Problem: Reported Log 1/C, compound CC1(C)C=C(n2ccccc2=O)c2cc(C(=O)c3c(F)cccc3F)ccc2O1 : ____
Result: 6.97

Problem: Reported Log 1/C, compound CC1(C)C=C(n2ccccc2=O)c2cc(OC(=O)Nc3ccc(C(F)(F)F)cc3)ccc2O1 : ____
Result: 5.1

====

species: Rattus norvegicus; experiment: Relaxant potency in rat aorta.; assay type: functional
measured parameter: Log 1/C
# print the numeric value only

In the examples that follow, each entry is paired with its recorded Log 1/C.
| compound string | Log 1/C |
| --- | --- |
| CC(=O)Oc1ccc2c(c1)C(n1ccccc1=O)=CC(C)(C)O2 | 5.6 |
| CC1(C)C=C(n2ccccc2=O)c2cc(C(=O)c3ccccc3[N+](=O)[O-])ccc2O1 | 6.17 |

Problem: Reported Log 1/C, compound CC(=O)c1ccc2c(c1)C(n1ccccc1=O)=CC(C)(C)O2 : ____
Result: 7.37

Problem: Reported Log 1/C, compound CC1(C)C=C(n2ccccc2=O)c2cc(OC(=O)Nc3ccccc3C(F)(F)F)ccc2O1 : ____
Result: 5.58

Problem: Reported Log 1/C, compound CC1(C)C=C(n2ccccc2=O)c2cc(C(=O)c3ccccc3F)ccc2O1 : ____
Result: 7.08

Problem: Reported Log 1/C, compound CC1(C)C=C(n2ccccc2=O)c2cc(C(=O)c3cccs3)ccc2O1 : ____
Result: 6.4

Problem: Reported Log 1/C, compound CC1(C)C=C(n2ccccc2=O)c2cc(C(F)(F)F)ccc2O1 : ____
Result: 7.61

Problem: Reported Log 1/C, compound CC1(C)C=C(n2ccccc2=O)c2cc(Br)ccc2O1 : ____
Result: 7.84

Problem: Reported Log 1/C, compound CC1(C)C=C(n2ccccc2=O)c2cc(OC(=O)Nc3ccccc3F)ccc2O1 : ____
Result: 5.38

Problem: Reported Log 1/C, compound CC1(C)C=C(n2ccccc2=O)c2cc(C(=O)c3ccccc3C(F)(F)F)ccc2O1 : ____
Result: 6.76

Problem: Reported Log 1/C, compound CC1(C)C=C(n2ccccc2=O)c2cc(C(=O)c3ccco3)ccc2O1 : ____
Result: 6.49

Problem: Reported Log 1/C, compound Cc1ccc(C)n1-c1ccc2c(c1)C(n1ccccc1=O)=CC(C)(C)O2 : ____
Result: 7.27

====

species on record: Rattus norvegicus; assay: Relaxant potency in rat aorta.; type: functional
measured parameter: Log 1/C
# print the numeric value only

| compound string | quantitative readout |
| --- | --- |
| COc1ccc(C(=O)c2ccc3c(c2)C(n2ccccc2=O)=CC(C)(C)O3)cc1 | 6.15 |

Problem: Reported Log 1/C, compound CC1(C)C=C(n2ccccc2=O)c2cc(OCC(=O)c3ccccc3)ccc2O1 : ____
Result: 5.05

Problem: Reported Log 1/C, compound CC1(C)C=C(n2ccccc2=O)c2cc(C(=O)c3ccccc3)ccc2O1 : ____
Result: 6.61

Problem: Reported Log 1/C, compound CC1(C)C=C(n2ccccc2=O)c2cc(OC(=O)Nc3ccccc3)ccc2O1 : ____
Result: 5.3

Problem: Reported Log 1/C, compound CC1(C)C=C(n2ccccc2=O)c2cc(OCC(=O)c3ccc(F)cc3)ccc2O1 : ____
Result: 4.63

Problem: Reported Log 1/C, compound CC1(C)C=C(n2ccccc2=O)c2cc(C(=N)NO)ccc2O1 : ____
Result: 5.99

Problem: Reported Log 1/C, compound COc1ccc2c(c1)C(n1ccccc1=O)=CC(C)(C)O2 : ____
Result: 6.55
